The reported measurements were obtained from PubChem BioAssay (NCI).

- Tested on: NCI-H322M lung
- Experiment: NCI-60 one-dose screen, 48 h
- Condition context: 10 µM unless noted
- Description: Growth inhibition of the NCI-H322M human Non-Small Cell Lung tumor cell line is measured as a screen for anti-cancer activity. Cells are grown in 96 well plates and exposed to the test compound for 48 hours. Compounds are tested at a single concentration, which is 10^-5 M for most compounds. The reported endpoint is percent growth (GI% or GIPRCNT), where numbers from 0 - 100% represent growth inhibition, and numbers from -100% - 0 represent cell death. […]
About 83,000 compounds went through this panel and 20% of them were active in at least one assay; those are over-represented in the sample as a whole. Calls of active or inactive are those of the source. How the source made its calls: active means growth percent below 10; inactive means the rest.
Labels: true (active), false (inactive)

>>> answer_label("CCOc1ccc(C(=O)NC(=S)Nc2ccc(S(N)(=O)=O)cc2)cc1")
"false"
>>> answer_label("COc1ccc(C(=O)/C=C/c2ccc(OCc3ccccc3)c(OC)c2)cc1OC")
"false"
>>> answer_label("CCOC(=O)C1=C(N)N(c2ccccc2)C2=C(C(=O)CC(C)(C)C2)C1c1ccc(N2CCOCC2)cc1 (stereo not drawn)")
"false"
>>> answer_label("CC1(C)CC[C@]2(C(=O)O)CC[C@]3(C)C(=CCC4[C@@]5(C)C[C@@H](O)[C@@H]6OC(c7cccc(Br)c7)OC[C@@]6(C)C5CC[C@]43C)C2C1 (stereo partly drawn)")
"false"
>>> answer_label("CCN1C(=O)N(CC)C2NNC(Sc3c(C(=O)O)c4ccccc4n(C4CCCC4)c3=O)=NC21 (stereo not drawn)")
"false"
>>> answer_label("CNS(=O)(=O)c1ccc(Nc2ccc(C(F)(F)F)cc2)c(-c2cn(C)cn2)c1")
"false"
>>> answer_label("Nc1nc(C(F)(F)F)cs1")
"false"
>>> answer_label("Cn1cc(-c2cc(N)n3nc(-c4cn(C)c5ncc(Br)cc45)cc3n2)c2cc(Br)cnc21")
"false"
>>> answer_label("CC1=C(C(=O)c2ccccc2)C(c2cccc3ccccc23)n2c(nc3ccccc32)N1 (stereo not drawn)")
"false"
>>> answer_label("Cn1cc(-c2cc(N)n3nc(-c4cn(C)c5ccccc45)cc3n2)c2cc(Br)ccc21")
"true"
>>> answer_label("COc1ccc(-c2nnc3ccc(N/N=C/c4ccc(C)cc4)nn23)cc1")
"false"
>>> answer_label("COc1ccc(-c2nc(SC(C)C)nc(NCCc3c[nH]c4ccccc34)c2C#N)cc1")
"false"
>>> answer_label("COc1cc(-c2nc3ccc(C)cc3[nH]2)ccc1OCc1nnc(-c2ccc(Br)cc2)o1")
"false"
>>> answer_label("Cc1cccc(-c2nc(Nc3ccc(C)c(S(N)(=O)=O)c3)c3ccccc3n2)c1")
"false"
>>> answer_label("Cc1ncsc1-c1ccc(CNC(=O)[C@@H]2C[C@@H](O)CN2C(=O)[C@@H](NC(=O)C2(F)CC2)C(C)(C)C)c(OCCOCCOCCOCCOc2nc(Nc3cc(S(C)(=O)=O)ccc3N[C@@H](c3cccc4c3OC(F)(F)O4)c3ncccc3Cl)nc(N3CCNCC3)n2)c1")
"false"
>>> answer_label("CC12CC[C@@H]3[C@]4(C)COC(c5cn[nH]c5-c5cccc(Cl)c5)O[C@@H]4CC[C@@]3(C)[C@@H]1CC(C1=CCOC1=O)O2 (stereo partly drawn)")
"false"
>>> answer_label("CSc1ccccc1NC(=O)c1ccc2nn(/C(C#N)=C/c3ccccn3)nc2c1")
"false"
>>> answer_label("NC(=S)Nc1cccc(NC(N)=S)c1")
"false"

---

- Tested on: T-47D breast
- Experiment: NCI-60 one-dose screen, 48 h (100 = growth as untreated, 0 = no growth, -100 = all killed)
- Condition context: 10 µM unless noted
Compounds without any hit were thinned out: in the full panel of roughly 83,000, 20% have a hit.
Please note: satisfied applies when growth is 70% or greater, and not satisfied applies otherwise.

>>> answer_label("COCOc1cc2oc(C(=O)N[C@@H](Cc3ccccc3)C(O)C(=O)NCc3ccccc3)c(C)c(=O)c2cc1OCOC (stereo not given in full)")
"satisfied"
>>> answer_label("Cc1cc(C)cc(NC(=O)Cn2cc(COn3nnc4ccccc43)nn2)c1")
"satisfied"
>>> answer_label("CC(=O)NNc1ccc2nnc(-c3ccccc3)n2n1")
"satisfied"
>>> answer_label("Cc1cc(=O)oc2cc(OCCOc3ccc(/C=C/C(=O)Nc4ccccc4N)cc3)ccc12")
"not satisfied"
>>> answer_label("COc1cc2oc(-c3cccc(C(=O)Nc4ccc(Cl)cc4)c3)cc(=O)c2c(OCC(=O)N[C@@H](Cc2ccccc2)C(=O)O)c1OC")
"satisfied"
>>> answer_label("COc1cc(C2CC(c3cc(OC)c(OC)c(OC)c3)=NN2C(C)=O)ccc1OCc1ccccc1 (stereo not given)")
"not satisfied"
>>> answer_label("NS(=O)(=O)c1ccc(N=Nc2c(O)n(CC(=O)Nc3ccccc3Cl)c3ccccc23)cc1")
"not satisfied"
>>> answer_label("COc1ccc2cc([C@H](C)C(=O)N/N=C/c3ccc(Br)cc3)ccc2c1")
"satisfied"
>>> answer_label("COc1cc(C2CC(c3cc(OC)c(OC)c(OC)c3)=Nc3c(N)nc(N)nc3N2)ccc1Oc1nc(NCCO)nc(N2CCOCC2)n1 (stereo not given)")
"satisfied"
>>> answer_label("Cc1ccc(-c2nc(Nc3ccccc3S(N)(=O)=O)c3ccccc3n2)cc1")
"satisfied"
>>> answer_label("Cc1sc2c(c1C)C(c1ccc(Cl)cc1)=N[C@@H](CC(=O)NCCCCCNC(=O)COc1ccc(C3CCC(=O)NC3=O)cc1)c1nnc(C)n1-2 (stereo not given in full)")
"not satisfied"
>>> answer_label("COc1cccc(-c2nc(Nc3ccc(S(N)(=O)=O)cc3)c3ccccc3n2)c1")
"not satisfied"
>>> answer_label("COc1ccc(/C=C/c2nc3ccccc3c(=O)n2CC(=O)Nc2ccc(Cl)cc2)cc1")
"not satisfied"
>>> answer_label("Cn1cc(-c2cc(N)n3nc(-c4cn(C)c5ccccc45)cc3n2)c2cc(Br)ccc21")
"not satisfied"
>>> answer_label("C#CCOc1cc(N(CC)CC)ccc1C(C(=O)NC(C)(C)C)N(C(=O)C1CCc2cc(F)ccc2O1)c1cc(C)cc(C)c1 (stereo not given)")
"not satisfied"
>>> answer_label("C=C1CC[C@@H]2[C@]3(C)COC(c4ccccc4)O[C@@H]3CC[C@@]2(C)[C@@H]1C/C=C1/C(=O)OCC1OC(C)=O (stereo not given in full)")
"not satisfied"
>>> answer_label("O=C1/C(=C/C2=Cc3ccccc3OC2)SC(=S)N1c1ccccc1F")
"satisfied"
>>> answer_label("N#Cc1c(-c2cccc(Cl)c2Cl)cc(-c2ccc3ccccc3c2)[nH]c1=O")
"not satisfied"
>>> answer_label("COc1cc2c(c(OC)c1OC)C(=O)CC(c1cccc(NC(=O)[C@@H](N)CC(C)C)c1)O2 (stereo not given in full)")
"satisfied"
>>> answer_label("C=C1CCC2C3(C)COC(c4cccs4)OC3CCC2(C)C1CC(Sc1ccccc1)C1=CCOC1=O (stereo not given)")
"satisfied"
>>> answer_label("COc1cc(CNC(=O)/C=C/c2ccc3c(c2)OCO3)ccc1OCc1cn(-c2cccc(C(F)(F)F)c2)nn1")
"not satisfied"
>>> answer_label("CC(=O)OC[C@@]1(C)C2CC[C@]3(C)C(CC=C4C5CC(C)(C)CC[C@]5(C(=O)Nc5ccc(Br)cc5)CC[C@]43C)[C@@]2(C)C[C@@H](OC(C)=O)[C@@H]1OC(C)=O (stereo not given in full)")
"not satisfied"
>>> answer_label("C=C1CC[C@@H]2[C@]3(C)COC(c4cn[nH]c4-c4ccccc4)O[C@@H]3CC[C@@]2(C)[C@@H]1C/C=C1/C(=O)OCC1O (stereo not given in full)")
"not satisfied"
>>> answer_label("COCOc1ccc2c(=O)c(C)c(C(=O)N[C@@H](Cc3ccccc3)C(O)C(=O)NCCc3ccc(OC)cc3)oc2c1 (stereo not given in full)")
"satisfied"
>>> answer_label("CC(C)Sc1nc(NCCc2c[nH]c3ccccc23)c(C#N)c(-c2ccc(F)cc2)n1")
"not satisfied"
>>> answer_label("CC1=C(C(=O)OCc2ccccc2)C(c2ccc(-n3cncn3)cc2)n2c(nc3ccccc32)N1 (stereo not given)")
"not satisfied"
>>> answer_label("COc1cc(/C=C2\\C(=N)N=C(SCc3nc4ccccc4[nH]3)NC2=O)ccc1O")
"satisfied"
>>> answer_label("COc1cc2c(c(OC)c1OC)C(=O)CC(c1cccc(NC(=O)c3cc(NC(=O)[C@H](C)N)ccc3Cl)c1)O2 (stereo not given in full)")
"not satisfied"
>>> answer_label("CN(C)CCCNC(=O)c1cc(NC(=O)c2cc(NC(=O)c3ccc(C#Cc4ccccc4)cc3)cn2C)cn1C")
"not satisfied"
>>> answer_label("O=C(Cn1c(/C=C/c2ccccc2)nc2ccccc2c1=O)Nc1ccc(Cl)cc1")
"not satisfied"
>>> answer_label("COCOc1cc2c(=O)c(C)c(C(=O)N[C@@H](Cc3ccccc3)C(O)C(=O)NCc3ccccc3)oc2cc1OC (stereo not given in full)")
"not satisfied"
>>> answer_label("O=C(NNc1nc2cc(F)ccc2n2c(CN3CC4CNCC4C3)ccc12)c1ccncn1 (stereo not given)")
"not satisfied"
>>> answer_label("CC(C)c1ccc2c(N)c(C(=O)Nc3ccc(C(F)(F)F)cn3)sc2n1")
"not satisfied"
>>> answer_label("CC(C)CSc1nc(NCCc2c[nH]c3ccccc23)c(C#N)c(-c2ccc(Cl)cc2)n1")
"not satisfied"
>>> answer_label("CN(C)CCn1c2ccccc2c2nc3cc4ccccc4cc3nc21")
"not satisfied"
